tested on: BxPC-3 cancer cell line; assay: Cell proliferation resazurin assay, BxPC-3; assay type: cell-based, human; conditions: BxPC-3, 24 h incubation
pIC50: −log10 of the molar value.
The entries below come with measured pIC50 values attached.
parameter: pIC50

compound	recorded-number
[NH2][Pt]([NH2])([Cl])[Cl] [CDDP, cisplatin, reference compound]	4.95
COc1ccc(NC(=NN=Cc2ccccn2)[S][Cu][O][N+](=O)[O-])cc1 [C6, [Cu(L^3)NO3]]	7.00
COc1ccccc1NC(=NN=Cc1ccccn1)[S][Cu][Cl] [C1, [Cu(L^1)Cl]]	7.00
COc1cccc(NC(=NN=C(C)c2ccccn2)[S][Cu][O][N+](=O)[O-])c1 [C7, [Cu(L^4)NO3]]	6.70
COc1cccc(NC(=NN=Cc2ccccn2)[S][Cu][O][N+](=O)[O-])c1 [C4, [Cu(L^2)NO3]]	7.00
COc1ccccc1NC(=NN=Cc1ccccn1)[S][Cu][O][N+](=O)[O-] [C2, [Cu(L^1)NO3]]	7.00
COc1ccc(NC(=NN=Cc2ccccn2)[S][Cu][Cl])cc1 [C5, [Cu(L^3)Cl]]	5.03
COc1cccc(NC(=NN=C(C)c2ccccn2)[S][Cu][Cl])c1 [C8, [Cu(L^4)Cl]]	7.00

---

Listing of entries alongside the reported LC50 at 24 h.
system: Daphnia magna; assay: in vivo; conditions: other: immersion in compound dilution, pH 7
parameter: LC50 at 24 h (µM)

substance-smiles	system-tested	parameter	recorded-number
COc1cccc(NC(=S)N/N=C/c2ccccn2)c1	Daphnia magna	LC50 at 24 h	13
COc1cccc(NC(=S)N/N=C(/c2ccccc2)c2ccccn2)c1	Daphnia magna	LC50 at 24 h	45
COc1cccc(NC(=S)N/N=C(\C)c2ccccn2)c1	Daphnia magna	LC50 at 24 h	14
COc1ccccc1NC(=S)N/N=C/c1ccccn1	Daphnia magna	LC50 at 24 h	15
COc1ccc(NC(=S)N/N=C/c2ccccn2)cc1	Daphnia magna	LC50 at 24 h	35

---

test system: MDCK normal cell line; assay: Cell proliferation resazurin assay, MDCK normal cell line; assay type: cell-based, canine; details: 24 h incubation

molecule	IC50 / nM
COc1cccc(NC(=NN=Cc2ccccn2)[S][Cu][O][N+](=O)[O-])c1 [C4, [Cu(L^2)NO3]]	1300
COc1ccc(NC(=NN=Cc2ccccn2)[S][Cu][Cl])cc1 [C5, [Cu(L^3)Cl]]	26600
COc1cccc(NC(=NN=C(C)c2ccccn2)[S][Cu][Cl])c1 [C8, [Cu(L^4)Cl]]	1100
COc1ccccc1NC(=NN=Cc1ccccn1)[S][Cu][O][N+](=O)[O-] [C2, [Cu(L^1)NO3]]	600
COc1ccc(NC(=NN=Cc2ccccn2)[S][Cu][O][N+](=O)[O-])cc1 [C6, [Cu(L^3)NO3]]	2100
COc1ccccc1NC(=NN=Cc1ccccn1)[S][Cu][Cl] [C1, [Cu(L^1)Cl]]	300
[NH2][Pt]([NH2])([Cl])[Cl] [CDDP, cisplatin, reference compound]	1500
COc1cccc(NC(=NN=C(C)c2ccccn2)[S][Cu][O][N+](=O)[O-])c1 [C7, [Cu(L^4)NO3]]	900

---

Measured IC50, listed per entry for reference.
test system: MCF-7 cancer cell line; experiment: Cell proliferation MTT assay, MCF-7; format: cell-based, human; conditions: Homo sapiens, MCF7, MCF-7, 24 h incubation

compound	unit-label	IC50
COc1ccccc1NC(=S)N/N=C/c1ccccn1	µM	10
COc1cccc2c1C(=O)c1c(O)c3c(c(O)c1C2=O)C[C@@](O)(C(=O)CO)C[C@@H]3O[C@H]1C[C@H](N)[C@H](O)[C@H](C)O1 [DOXO, doxorubicin, reference compound]	µM	14
COc1cccc(NC(=S)N/N=C(\C)c2ccccn2)c1	µM	55
COc1cccc(NC(=S)N/N=C/c2ccccn2)c1	µM	3.5
COc1ccc(NC(=S)N/N=C/c2ccccn2)cc1	µM	100
COc1cccc(NC(=S)N/N=C(/c2ccccc2)c2ccccn2)c1	µM	5.2

---

system: Daphnia magna; experiment: in vivo; conditions: pH 7
parameter: LC50 at 24 h

compound	result
COc1cccc2c1C(=O)c1c(O)c3c(c(O)c1C2=O)C[C@@](O)(C(=O)CO)C[C@@H]3O[C@H]1C[C@H](N)[C@H](O)[C@H](C)O1 [DOXO, doxorubicin, reference compound]	3.6 µM

---

tested on: HeLa, RD, and BxPC-3 cancer cell lines; assay: Antiproliferative activity, summary over HeLa, RD and BxPC-3 cell lines; assay type: cell-based; details: Homo sapiens; range over the three cancer cell lines; read-out: IC50 range against HeLa, RD, and BxPC-3 cell lines

substance-smiles	IC50
COc1cccc(NC(=S)N/N=C/c2ccccn2)c1	100 to 200 nM
COc1cccc(NC(=S)N/N=C(\C)c2ccccn2)c1	100 to 11000 nM
COc1ccc(NC(=S)N/N=C/c2ccccn2)cc1	500 to 100000 nM
COc1cccc(NC(=S)N/N=C(/c2ccccc2)c2ccccn2)c1	500 to 100000 nM

---

Listed here are compounds together with their documented pIC50.
system: K-562 cancer cell line; experiment: Cell proliferation MTT assay, K-562; assay type: cell-based, human; conditions: K-562, 24 h incubation
pIC50: −log10 of the molar value.
parameter: pIC50

compound	parameter	recorded-number
COc1ccccc1NC(=NN=Cc1ccccn1)[S][Cu][O][N+](=O)[O-] [C2, [Cu(L^1)NO3]]	pIC50	6.30
COc1ccccc1NC(=NN=Cc1ccccn1)[S][Cu][Cl] [C1, [Cu(L^1)Cl]]	pIC50	4.19
COc1ccc(NC(=NN=Cc2ccccn2)[S][Cu][O][N+](=O)[O-])cc1 [C6, [Cu(L^3)NO3]]	pIC50	7.52

---

system: K-562 cancer cell line; test: Cell proliferation MTT assay, K-562; type: cell-based, human; conditions: Homo sapiens, K562, K-562, 24 h incubation
As shown below, each of these compounds has a reported IC50 value.
parameter: IC50 (µM)

compound	recorded-number
COc1cccc(NC(=S)N/N=C(\C)c2ccccn2)c1 [HL^4]	16
COc1ccc(NC(=S)N/N=C/c2ccccn2)cc1 [HL^3]	10
COc1cccc2c1C(=O)c1c(O)c3c(c(O)c1C2=O)C[C@@](O)(C(=O)CO)C[C@@H]3O[C@H]1C[C@H](N)[C@H](O)[C@H](C)O1 [DOXO, doxorubicin, reference compound]	0.4
COc1ccccc1NC(=S)N/N=C/c1ccccn1 [HL^1]	10
COc1cccc(NC(=S)N/N=C(/c2ccccc2)c2ccccn2)c1 [HL^5]	0.1
COc1cccc(NC(=S)N/N=C/c2ccccn2)c1 [HL^2]	0.9

---

system: HeLa cancer cell line; experiment: Cell proliferation resazurin assay, HeLa; format: cell-based, human; conditions: Homo sapiens, 24 h incubation
pIC50: −log10 of the molar value.
Threshold check on pIC50: at or above 5 gives criterion met, strictly below gives criterion not met.

compound	assigned-class
COc1cccc(NC(=S)N/N=C(\C)c2ccccn2)c1 [HL^4]	criterion met
COc1ccccc1NC(=S)N/N=C/c1ccccn1 [HL^1]	criterion not met
COc1cccc(NC(=S)N/N=C/c2ccccn2)c1 [HL^2]	criterion met
COc1cccc(NC(=S)N/N=C(/c2ccccc2)c2ccccn2)c1 [HL^5]	criterion not met
COc1ccc(NC(=S)N/N=C/c2ccccn2)cc1 [HL^3]	criterion not met
COc1cccc2c1C(=O)c1c(O)c3c(c(O)c1C2=O)C[C@@](O)(C(=O)CO)C[C@@H]3O[C@H]1C[C@H](N)[C@H](O)[C@H](C)O1 [DOXO, doxorubicin, reference compound]	criterion met
